- Read-out: Lipase C (LIPC), LIPC (gene 3990)
- Method Notes: LTEA_HepaRG_LIPC: Life Technologies and Expression Analysis (LTEA) Assay for Lipase C (LIPC) using HepaRG (AID 2283514)
- Settings: mRNA level, 48 h; actives raise or lower the signal
The source made the active and inactive calls. How the source made its calls: active means hit-call score of the fitted dose curve at least 0.9, where 1 is the maximum; inactive means score below 0.9.
Can you answer with just one of these options? yes (1) for active, no (0) for inactive

// known answers, use as guide
{"Compound": "CCN(CC)CCNc1ccc(CNC=O)c2sc3ccc(OC)cc3c(=O)c12", "Classification": "no (0)"}
{"Compound": "O=C(O)Cc1cc(I)c(Oc2cc(I)c(O)c(I)c2)c(I)c1", "Classification": "yes (1)"}
{"Compound": "O=c1c(-c2ccc(O)cc2)coc2cc(O)ccc12", "Classification": "no (0)"}
{"Compound": "NC(=O)N1C(=O)C(C(=O)c2cc(Cl)cs2)c2cc(F)c(Cl)cc21 (stereo not given)", "Classification": "yes (1)"}

Then there is this compound:
Input line: Answer briefly: the call reported for CC(O)CO (stereo not given) in this assay.
Output line: no (0)

###

- Tested System: Nuclear respiratory factor 1 (Homo sapiens) (UniProt Q16656)
- Sequence (Q16656 whole entry, looked up): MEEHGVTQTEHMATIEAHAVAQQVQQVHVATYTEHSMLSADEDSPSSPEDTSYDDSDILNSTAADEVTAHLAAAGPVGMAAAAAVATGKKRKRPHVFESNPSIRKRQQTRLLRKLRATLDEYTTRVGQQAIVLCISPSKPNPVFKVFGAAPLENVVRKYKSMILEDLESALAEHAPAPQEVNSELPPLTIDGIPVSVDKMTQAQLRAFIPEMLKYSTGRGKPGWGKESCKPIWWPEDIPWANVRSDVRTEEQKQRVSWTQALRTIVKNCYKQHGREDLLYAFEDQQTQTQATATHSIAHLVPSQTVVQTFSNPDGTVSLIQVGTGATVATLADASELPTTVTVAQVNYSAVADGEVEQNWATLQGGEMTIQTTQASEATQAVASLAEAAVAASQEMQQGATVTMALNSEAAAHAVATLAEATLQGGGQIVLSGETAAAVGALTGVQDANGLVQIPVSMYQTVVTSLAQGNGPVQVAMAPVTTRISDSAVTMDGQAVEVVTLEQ
- Method Notes: ATG_NRF1_CIS: Attagene CIS-FACTORIAL HepG2 Assay for human Nuclear Respiratory Factor 1 (NRF1) Orphan Gene (AID 2282987)
- Settings: HepG2 NRF1 cis-element reporter, Attagene multiplex; actives raise or lower the signal
Calls of active or inactive are those of the source. Rule for the calls: active = hit-call score of the fitted dose curve at least 0.9, where 1 is the maximum; inactive = score below 0.9.
Can you answer with just one of these options? active, inactive

// known answers, use as guide
{"Molecule": "CCCCC(CC)COC(=O)CCCCC(=O)OCc1ccccc1 (configuration not stated)", "Classification": "inactive"}
{"Molecule": "CC1=C(/C=C/C(C)=C/C=C/C(C)=C/C(=O)O)C(C)(C)CCC1", "Classification": "inactive"}
{"Molecule": "O=C1OC2(c3ccccc31)c1cc(Br)c(O)c(Br)c1Oc1c2cc(Br)c(O)c1Br", "Classification": "inactive"}
{"Molecule": "CCN(CC)CCNc1ccc(CNC=O)c2sc3ccc(OC)cc3c(=O)c12", "Classification": "active"}
{"Molecule": "Cc1oc(-c2ccccc2)nc1CCOc1ccc(C[C@H](Nc2ccccc2C(=O)c2ccccc2)C(=O)O)cc1", "Classification": "active"}

Then there is this molecule:
Input line: Answer briefly: the call reported for NC(=O)N1C(=O)C(C(=O)c2cc(Cl)cs2)c2cc(F)c(Cl)cc21 (configuration not stated) in this assay.
Output line: inactive

###

- Tested System: Aryl hydrocarbon receptor (Homo sapiens)
- Method Notes: ATG_Ahr_CIS: Attagene CIS-FACTORIAL HepG2 Assay for human Aryl Hydrocarbon Receptor (Ahr) (AID 2282930)
- Settings: HepG2 AhR cis-factorial reporter transcription; actives raise or lower the signal
Active and inactive are the calls of the source. Rule for the calls: active = hit-call score of the fitted dose curve at least 0.9, where 1 is the maximum; inactive = score below 0.9.
Can you answer with just one of these options? T for active, F for inactive

{"Smiles Data": "O=C(OCCOCCOC(=O)c1ccccc1)c1ccccc1", "Tested System": "Aryl hydrocarbon receptor (Homo sapiens)", "Classification": "T"}
{"Smiles Data": "FC(F)(I)C(F)(F)C(F)(F)C(F)(F)C(F)(F)C(F)(F)I", "Tested System": "Aryl hydrocarbon receptor (Homo sapiens)", "Classification": "F"}

Input line: Answer briefly: the call reported for `CCCOC(=O)c1ccc(O)cc1` in this assay.
Output line: F
